experiment: probe aLefty1 binding on compound microarray – biochemical, small-molecule microarray, 635/667 nm fluorescence, primary screen (AID 1153); settings: higher = more signal;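 further: score merges spot fluorescence with signal-to-noise ratio from the scanned slide images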
Quick rule for you: composite z-score at 0.6 or higher means y, lower means n.

# input # check: composite z-score of COC(=O)[C@@]1(Cc2ccc(F)cc2)[C@H]2c3cc(C(=O)N(C)C)n(CCc4ccc(OC)c(Br)c4)c3C[C@H]2CN1C(=O)c1ccccc1 is greater than or equal to 0.6
# output y

# input # check: composite z-score of COc1ccc([C@H]2OC[C@@H]3C[C@H](Cc4ccccc4)C(=O)N32)cc1 is greater than or equal to 0.6
# output n

# input # check: composite z-score of COc1ccc([Si](C)(C)[C@@H]2[C@@H](CCO)O[C@]3(C(=O)N(Cc4ccccc4)c4ccc(NC(=O)[C@H](C)O)cc43)[C@H]2C)cc1 is greater than or equal to 0.6
# output y

# input # check: composite z-score of CN(C)CCCCCCNC(=O)[C@@H]1C[C@@H]2C(=O)N3CCC[C@H]3C(=O)N2[C@@H]1c1cccc(OCCO)c1 is greater than or equal to 0.6
# output n

# input # check: composite z-score of CC#CCO[Si](C#Cc1ccccc1)(C(C)C)C(C)C is greater than or equal to 0.6
# output n

# input # check: composite z-score of COC(=O)[C@@]1(Cc2ccccc2)[C@H]2c3cc(C(=O)N4CCCC4)n(CCc4ccccn4)c3C[C@H]2CN1C(=O)c1ccccc1 is greater than or equal to 0.6
# output y

# input # check: composite z-score of COC(=O)[C@@]1(Cc2ccc(F)cc2)[C@H]2c3cc(C(=O)N4CCCC4)n(CCc4c[nH]c5ccccc45)c3C[C@H]2CN1C(=O)c1ccccc1 is greater than or equal to 0.6
# output y

---

So I've got a bunch of compounds here, and I need their z-score values.
experiment: FRG1 expression reporter modulators in myotubes – cell-based, C2C12 myotubes, firefly/Renilla luciferase, luminescence, FRG1 inhibition for FSHD, primary screen (AID 1084); conditions: FRG1 promoter luciferase, higher = more signal, called active from +8 up or from −8 down
Reply with the value as a number alone.

# input Return z-score for the following compound: O=C1[C@H]2C=C(I)[C@H](C[C@@H]2OCCOCCO)[C@@]12CO2
# output 0.843

# input Return z-score for the following compound: CCOC(=O)C1=CC[C@@H](c2ccccc2F)N(S(=O)(=O)c2ccc(C)cc2)[C@H]1c1ccccc1
# output -3.46

# input Return z-score for the following compound: NC(=O)NCC#Cc1ccc2c(c1)[C@]1(C(=O)N2)[C@H](c2ccccc2OCCO)N2[C@H](c3ccccc3)[C@H](c3ccccc3)OC(=O)[C@H]2[C@@H]1C(=O)NC[C@H](O)c1ccccc1
# output -0.308

# input Return z-score for the following compound: O=C1CS(=O)(=O)C(c2cccc([N+](=O)[O-])c2)N1c1ccccc1 (centres undefined)
# output -0.997

---

target: NADPH oxidase 2 (Homo sapiens); test: compounds shifting NOX2 Amplex Red fluorescence – cell-based, HEK293-NOX2, PMA-stimulated, NOX inhibitor project, primary screen (AID 1159); conditions: 45 min, higher = more signal, called active from +8 up or from −8 down; further: test concentration not given here
value-type: z-score
Reply with the value as a number alone.

# input Return z-score for the following molecule: COC(=O)[C@@]1(Cc2ccccc2)[C@H]2c3cc(C(=O)N4CCCC4)n(CCc4ccccn4)c3C[C@H]2CN1C(=O)c1ccccc1
# output 0.267

# input Return z-score for the following molecule: Cc1ccc(S[C@]2(C(=O)O)CC(=O)N(C3CCCCC3)[C@@H]2c2ccc(CO)cc2I)cc1
# output 3.66

# input Return z-score for the following molecule: C=C[C@@H](OC)[C@H](OC(=O)Nc1ccc(OC)cc1)c1ccc(O)c(F)c1
# output -1.79

# input Return z-score for the following molecule: COC(=O)[C@@]1(Cc2ccc(OC)cc2)[C@H]2c3cc(C(=O)N(C)C)n(Cc4ccc(OC(F)(F)F)cc4)c3C[C@H]2CN1C(=O)c1ccccc1
# output 0.262

# input Return z-score for the following molecule: COc1ccccc1CN1C(=O)c2ccccc2[C@](Cc2ccccc2I)(C(=O)O)[C@@H]1c1ccc(CO)cc1
# output 1.03

# input Return z-score for the following molecule: CC(C)NC(=O)[C@@]1(c2ccc([N+](=O)[O-])cc2)CC(=O)N(C2CCCCC2)[C@@H]1c1ccc(CO)cc1
# output 0.0357

# input Return z-score for the following molecule: COc1ccc([Si](C)(C)[C@@H]2[C@@H](CCO)O[C@]3(C(=O)N(Cc4ccccc4)c4ccc(N5CCOC5=O)cc43)[C@H]2C)cc1
# output -0.245

# input Return z-score for the following molecule: CC1CC/C=C\[C@H]2OC34C=CCN(Cc5ccccc5)C(=O)[C@H]3N(C(CO)C(C)C)C(=O)[C@@H]4C2C(=O)O1 (some centres not stated)
# output 1.84

# input Return z-score for the following molecule: OCCCC1=CC(c2ccc(CN3CCCC3)cc2)N(Cc2cc3c(cc2Br)OCO3)CC1 (configuration not stated)
# output -3.1

# input Return z-score for the following molecule: COc1ccc(CCNC(=O)[C@@]2(c3ccc([N+](=O)[O-])cc3)CC(=O)N(C3CCCCC3)[C@@H]2c2ccc(CO)cc2)cc1
# output -1.05

# input Return z-score for the following molecule: CC(C)C[C@@H]1NC(=O)[C@@H]2C[C@H](C(=O)NCCCCCCN)[C@H](c3cccc(OCCO)c3)N2C1=O
# output 2.24

# input Return z-score for the following molecule: CC(C)N1C(=O)c2ccccc2[C@@H](C(=O)NCCN2CCOCC2)[C@@H]1c1ccc(CO)cc1
# output 1.59

# input Return z-score for the following molecule: CN(C)C(=O)[C@]1(Cc2ccccc2CN=[N+]=[N-])N=C(c2ccc(OCCCO)cc2)O[C@@H]1c1ccccc1
# output -4

# input Return z-score for the following molecule: CCOC(=O)[C@@H]1CCCCN1C(=O)C(=O)OC
# output 0.296

# input Return z-score for the following molecule: CCCC=C(CCC)[C@@H](NS(=O)(=O)c1ccc(C(F)(F)F)cc1)c1ccccc1
# output -0.832

# input Return z-score for the following molecule: CCCCCN1CC=CC23O[C@@H]4/C=C\CCCOC(=O)C4[C@H]2C(=O)N(C(C)CO)[C@@H]3C1=O (some centres not stated)
# output 0.825

# input Return z-score for the following molecule: CCCC=C(CCC)[C@@H](NC(=O)C(C)(C)C)c1ccc(C(=O)OC)cc1
# output -0.129
